Test system: DeltatarO mutant
Assay: S. aureus survival, RN4220 and DeltatarO strains – OD600, teichoic acid synthesis inhibitors, primary screen (AID 463173)
Details: S. aureus RN4220 wild type/DeltatarO growth, OD600, 18 h, screened at 18.75 µg/mL (by protocol)
Screen size: about 52,000 compounds; about 4,300 (8.3%) were called active. No stated cut-off is given here; in the data, active means survival mostly below about 52% (no sharp cut-off); inactive means mostly above about 56%. What follows is part of a selection rich in actives, with near analogues and random picks from the rest.
Returns: one label drawn from active, inactive

Worked examples follow.
structure: O=c1oc2ccccc2cc1-c1cn2cc(Cc3ccccc3F)sc2n1
target_entity: DeltatarO mutant
group_label: active
--
structure: CC(C)c1ccc(Cc2cn3cc(-c4cc5ccccc5oc4=O)nc3s2)cc1
target_entity: DeltatarO mutant
group_label: inactive

Request: For CCOc1ccccc1CNC(=O)c1cnc2sc(N3CCOCC3)nn2c1=O , what call appears in the results of this test?
Response: inactive

Request: Answer briefly: the call reported for CCn1c(=O)c(C(=O)Nc2cc(OC)c(OC)c(OC)c2)nc2ccccc21 in this assay.
Response: inactive

Request: In this assay, the call recorded for O=c1oc2ccccc2cc1-c1cn2cc(Cc3ccc(Br)cc3)sc2n1 was what?
Response: inactive
